B1: library; numbered along this chain (parent)
chain: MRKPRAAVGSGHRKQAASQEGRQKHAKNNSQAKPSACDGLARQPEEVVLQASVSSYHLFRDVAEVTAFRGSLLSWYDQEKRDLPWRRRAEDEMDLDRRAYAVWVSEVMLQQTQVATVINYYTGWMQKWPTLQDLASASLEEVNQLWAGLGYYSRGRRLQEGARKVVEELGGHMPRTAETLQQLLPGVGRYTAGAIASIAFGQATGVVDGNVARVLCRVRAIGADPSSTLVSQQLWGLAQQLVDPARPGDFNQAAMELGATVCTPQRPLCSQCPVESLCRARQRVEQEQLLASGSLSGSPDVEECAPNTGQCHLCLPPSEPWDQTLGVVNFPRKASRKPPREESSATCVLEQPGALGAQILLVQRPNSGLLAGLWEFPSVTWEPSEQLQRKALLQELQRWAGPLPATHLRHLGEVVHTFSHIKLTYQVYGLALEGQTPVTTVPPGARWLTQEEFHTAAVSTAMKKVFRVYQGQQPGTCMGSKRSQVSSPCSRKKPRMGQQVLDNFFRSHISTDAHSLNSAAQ

Variants of: B1
method.description: 8OG:A repair function score (normalized; synonymous = 0, nonsense = -1) (normalized log-likelihood score); higher = more repair activity (WT-like);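 further: cells sorted at 72 h after reporter transfection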
experimental.parameters: with 8OG:A DNA repair reporter (GFP) in HEK-293 MUTYH KO cells
Short version: 8OG:A repair function score at least -0.2 is True, less is False.

# count of solved cases: 3
W374L: False
E90M: True
F250I: False

Could you verify whether the entry I421S shows 8OG:A repair function score of no less than -0.2? False

Would you say S153D shows 8OG:A repair function score at minimum -0.2? False

Item E302F with 8OG:A repair function score of -0.2 or above? False

Tell me whether 8OG:A repair function score is at least -0.2 here: L349T False

// inclusive: 8OG:A repair function score at least -0.2? input: P84S False

Hello, I need to know if R482E has measured 8OG:A repair function score not below -0.2. Thanks! True
